tested on: MS2 coat protein; assay: apparent KD of MS2 coat protein; designed switch direction (-1 OFF switch, 1 ON switch): 1; higher = weaker reporter binding; details: input ligand: FMN 200 uM
Decide by apparent KD of MS2 coat protein: equal to or exceeding 30 nM means true (1), less means false (0).

State whether the measured apparent KD of MS2 coat protein reaches 30 nM, counting equality as reaching it, for UCUGCAAGAACAGGAUAUGGGUUCAGAGCGGGAGUGCGCUUUGACACAUGAGGAUCACCCAUGUCCCAGAAGGGUUCAUGCGGC [Eseseste] (Eterna round: R96, puzzle: Same State NG 2)
true (1)

More entries:
Given the entry GCUCGAUGAGCGUUUUACAUGAGGAUCACCCAUGUUCGUGGGCAGGAUAUUUACGUGCGGUGUGUAGAGAAGGGCCCAUCGAGC [SameState NG3 #69] (Eterna round: R96, puzzle: Same State NG 3) , answer whether its apparent KD of MS2 coat protein meets or surpasses 30 nM.
true (1)

Data provenance is the supplement of paper PMC9170038.
